Values from paper PMC4505863

biological target: h5-HT2C (Homo sapiens); assay: Ca2+ mobilization assay; assay type: cell-based; conditions: HEK293, read-out: h5HT2C Emax
Sequence (P28335 33-458): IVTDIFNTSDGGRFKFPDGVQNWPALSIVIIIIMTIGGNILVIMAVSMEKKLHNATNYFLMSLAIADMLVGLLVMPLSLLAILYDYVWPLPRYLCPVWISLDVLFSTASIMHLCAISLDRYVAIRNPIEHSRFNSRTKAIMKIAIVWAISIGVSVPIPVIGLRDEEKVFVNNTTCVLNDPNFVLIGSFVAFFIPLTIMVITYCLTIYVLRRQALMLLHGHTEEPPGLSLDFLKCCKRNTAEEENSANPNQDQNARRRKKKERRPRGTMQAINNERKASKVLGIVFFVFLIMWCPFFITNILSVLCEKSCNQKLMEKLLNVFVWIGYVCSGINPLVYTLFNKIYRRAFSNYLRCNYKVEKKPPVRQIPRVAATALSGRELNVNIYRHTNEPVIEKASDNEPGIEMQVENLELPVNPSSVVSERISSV
ENDPOINT_LABEL: Emax (%)

smiles_text=COc1ccc2[nH]cc(CCNCc3cccc(SC)c3)c2c1 measured=60
smiles_text=COc1cc(CCNCc2ccc(Br)cc2)c(OC)cc1I measured=77
smiles_text=COc1ccc(CNCCc2cc(OC)c(I)cc2OC)cc1 measured=50
smiles_text=COc1ccc2[nH]cc(CCNCc3ccccc3OC)c2c1 measured=119
smiles_text=COc1ccc2[nH]cc(CCNCc3cccc(Cl)c3)c2c1 measured=85
smiles_text=COc1ccc2[nH]cc(CCNCc3cccc(I)c3)c2c1 measured=94
smiles_text=COc1ccc(CNCCc2c[nH]c3ccc(OC)cc23)cc1 measured=112

====

Ki values by entry
target: 5-ht1e (Homo sapiens, UniProt P28566); test: PDSP screening affinity 5-ht1e; format: binding
Sequence (P28566 whole entry): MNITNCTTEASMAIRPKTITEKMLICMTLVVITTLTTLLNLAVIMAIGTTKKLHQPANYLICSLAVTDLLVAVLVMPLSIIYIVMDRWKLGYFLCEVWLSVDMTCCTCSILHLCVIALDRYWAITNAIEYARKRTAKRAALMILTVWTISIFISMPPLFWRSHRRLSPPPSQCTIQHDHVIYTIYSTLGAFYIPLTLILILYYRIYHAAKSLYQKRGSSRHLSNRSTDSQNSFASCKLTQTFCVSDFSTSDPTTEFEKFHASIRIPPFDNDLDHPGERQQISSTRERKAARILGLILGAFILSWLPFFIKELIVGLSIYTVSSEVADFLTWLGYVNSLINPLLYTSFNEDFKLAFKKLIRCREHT
ENDPOINT_LABEL: Ki

smiles_text=COc1cc(CCNCc2cccc(Br)c2)c(OC)cc1I measured="0.792 µM"
smiles_text=COc1ccc2[nH]cc(CCNCc3cccc(I)c3)c2c1 measured="> 10 µM"
smiles_text=COc1cccc(CNCCc2c[nH]c3ccc(OC)cc23)c1 measured="> 10 µM"
smiles_text=COc1ccc2[nH]cc(CCNCc3ccccc3OC)c2c1 measured="> 10 µM"
smiles_text=COc1ccc2[nH]cc(CCNCc3cccc(C(F)(F)F)c3)c2c1 measured="> 10 µM"
smiles_text=COc1ccc2[nH]cc(CCNCc3cccc(SC)c3)c2c1 measured="> 10 µM"
smiles_text=COc1ccc2[nH]cc(CCNCc3cccc(F)c3)c2c1 measured="> 10 µM"
smiles_text=COc1ccc2[nH]cc(CCNCc3cccc(Cl)c3)c2c1 measured="> 10 µM"
smiles_text=COc1cc(CCNCc2ccccc2OC)c(OC)cc1I measured="> 10 µM"
smiles_text=COc1cccc(CNCCc2cc(OC)c(I)cc2OC)c1 measured="1.71 µM"
smiles_text=COc1cc(CCNCc2ccc(Br)cc2)c(OC)cc1I measured="> 10 µM"
smiles_text=COc1ccc(CNCCc2cc(OC)c(I)cc2OC)cc1 measured="1.28 µM"
smiles_text=COc1ccc2[nH]cc(CCNCc3cccc(Br)c3)c2c1 measured="> 10 µM"
smiles_text=COc1ccc(CNCCc2c[nH]c3ccc(OC)cc23)cc1 measured="> 10 µM"
smiles_text=COc1ccc2[nH]cc(CCNCc3ccccc3Br)c2c1 measured="> 10 µM"
smiles_text=COc1cc(CCNCc2ccccc2Br)c(OC)cc1I measured="> 10 µM"
smiles_text=COc1ccc2[nH]cc(CCNCc3ccc(Br)cc3)c2c1 measured="> 10 µM"

====

target: 5-HT1B (Homo sapiens); assay: PDSP screening affinity 5-HT1B; assay type: binding; details: 5-HT1B pKi ± SEM
Sequence (P28222 whole entry): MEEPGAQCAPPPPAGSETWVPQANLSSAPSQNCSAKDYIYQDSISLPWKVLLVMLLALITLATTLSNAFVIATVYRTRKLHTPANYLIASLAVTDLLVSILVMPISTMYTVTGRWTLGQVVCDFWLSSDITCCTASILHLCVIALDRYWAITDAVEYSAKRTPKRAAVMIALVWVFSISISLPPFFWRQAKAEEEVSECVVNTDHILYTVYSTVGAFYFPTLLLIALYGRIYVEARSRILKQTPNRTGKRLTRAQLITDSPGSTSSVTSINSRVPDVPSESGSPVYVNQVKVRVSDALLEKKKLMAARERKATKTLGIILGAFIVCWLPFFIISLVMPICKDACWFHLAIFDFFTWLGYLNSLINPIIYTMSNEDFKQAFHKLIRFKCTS
ENDPOINT_LABEL: Ki (µM)

molecule="COc1cc(CCNCc2ccc(Br)cc2)c(OC)cc1I [Compound 4e]" measured=6.03
molecule="COc1ccc2[nH]cc(CCNCc3ccc(Br)cc3)c2c1 [Compound 5f]" measured=4.47

====

target: UniProtKB P28223; experiment: h5-HT2A affinity, agonist radioligand [125I]DOI; assay type: binding; conditions: read-out: h5-HT2A Ki; [125I]DOI
Sequence (P28223 whole entry): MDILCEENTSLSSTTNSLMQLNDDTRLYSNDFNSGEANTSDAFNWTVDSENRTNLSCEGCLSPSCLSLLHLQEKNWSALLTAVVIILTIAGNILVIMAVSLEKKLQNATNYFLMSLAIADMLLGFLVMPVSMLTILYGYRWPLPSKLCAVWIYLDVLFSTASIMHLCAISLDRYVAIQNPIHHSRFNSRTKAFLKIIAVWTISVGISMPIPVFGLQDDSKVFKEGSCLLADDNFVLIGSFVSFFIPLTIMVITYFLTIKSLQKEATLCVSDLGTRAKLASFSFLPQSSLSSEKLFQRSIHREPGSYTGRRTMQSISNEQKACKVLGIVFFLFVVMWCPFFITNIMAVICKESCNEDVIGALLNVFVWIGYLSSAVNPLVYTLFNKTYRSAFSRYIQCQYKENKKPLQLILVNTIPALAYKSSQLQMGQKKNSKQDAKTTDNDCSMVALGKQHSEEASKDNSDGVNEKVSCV
pKi: −log10 of the molar value.
ENDPOINT_LABEL: pKi

smiles_text=COc1ccc2[nH]cc(CCNCc3cccc(C)c3)c2c1 endpoint_label=pKi measured=8.93
